- Test system: OVCAR-8
- measurement.description: NCI tumour cell line growth inhibition, 48 h
Calls of active or inactive are those of the source. No stated cut-off is given here; in the data, active = GI50 up to about 1.1 µM and inactive = higher.
Classes used: active, inactive

{"compound": "CC(=O)CCN1CC2CN=NC2(C#N)C1 (configuration not stated)", "category.label": "inactive"}
{"compound": "CCC(=O)CC(=O)CCC(=O)Nc1cc(C)ccc1C", "category.label": "inactive"}
{"compound": "O=C1Nc2c(ccc(Cl)c2I)C1=O", "category.label": "inactive"}
{"compound": "N#C/C(=C1/Sc2c(nc[nH]c2=O)N1c1ccccc1)c1nc2ccccc2[nH]1", "category.label": "inactive"}
{"compound": "COc1cccc(CSCC(=O)O)c1", "category.label": "inactive"}
{"compound": "CC12CCC(=O)N1c1cccnc1N2 (configuration not stated)", "category.label": "inactive"}
{"compound": "Cc1cc2c(C)nn(Cc3ccccc3Cl)c2c(C#N)c1C", "category.label": "inactive"}
{"compound": "CO[C@H]1[C@@H](O)[C@@H](C)O[C@@H](O[C@H]2CC[C@@]3(C)[C@H](CC[C@@H]4[C@@H]3CC[C@]3(C)[C@@H](C5=CC(=O)OC5)CC[C@]43O)C2)[C@@H]1O [ODOROSIDE H]", "category.label": "active"}
{"compound": "O=C(c1nc2ccc(Cl)cc2[nH]c1=O)C(O)c1cccc([N+](=O)[O-])c1 (configuration not stated)", "category.label": "inactive"}
{"compound": "O=C(O)C1=CNC(C(=O)O)=NN1", "category.label": "inactive"}
{"compound": "COc1cc(/C=C2\\CCC/C(=C\\c3cc(OC)c(O)c(OC)c3)C2=O)cc(OC)c1O", "category.label": "inactive"}
{"compound": "c1ccc2cc(CN3CCC(C4CCN(Cc5ccc6ccccc6c5)CC4)CC3)ccc2c1", "category.label": "inactive"}
{"compound": "COc1cccc(OC)c1NC(=O)C(=O)Nn1c(NNC(=O)c2ccncc2)nc2ccccc2c1=O", "category.label": "inactive"}
{"compound": "CC(=O)NC1=C(N)C(=O)c2ccccc2C1=O", "category.label": "inactive"}
{"compound": "CCOC(=O)C(NCc1ccc2c(c1)OCO2)(NC(=O)c1ccccc1)C(F)(F)F (configuration not stated)", "category.label": "inactive"}
{"compound": "O=C1[C@H](O)[C@@H]2C(O)O[C@H]3[C@@H]2N1C[C@H]3[Si](c1ccccc1)(c1ccccc1)c1ccccc1 (some centres not stated)", "category.label": "inactive"}
{"compound": "FC(F)(F)c1ccc(Cc2nc3cc4ccccc4cc3[nH]2)cc1", "category.label": "inactive"}
{"compound": "O=C(Nc1cc(Cl)ccc1Cl)c1cc2cccc(Cl)c2oc1=O", "category.label": "inactive"}
{"compound": "CCOCCOCCOCc1nc(C#N)c(N)o1", "category.label": "inactive"}
{"compound": "c1ccc(CN2CCCCC(Sc3ccccc3)CC2)cc1 (configuration not stated)", "category.label": "inactive"}
{"compound": "COc1cc2c(cc1O)C1Cc3ccc(OC)c(O)c3C[N+]1(C)CC2 (configuration not stated)", "category.label": "inactive"}
{"compound": "CC1CN=C(N(C(=O)Nc2ccccc2)C2CCCCC2)S1 (configuration not stated)", "category.label": "inactive"}

----------
- Test system: KM12
- measurement.description: NCI tumour cell line growth inhibition, 48 h
Active and inactive are the calls of the source. Rule as the data show it: active = GI50 up to about 1.1 µM and inactive = higher.

{"compound": "COc1cc(/C=C2\\CCC/C(=C\\c3cc(OC)c(O)c(OC)c3)C2=O)cc(OC)c1O", "GI50": "1.38 µM (inactive)"}
{"compound": "CN(C)CCCNc1c2c(=O)n(C)c(=O)nc-2n(C)c2ccccc12", "GI50": "3.58 µM (inactive)"}
{"compound": "CC(=O)NC1C(OC(C)C(=O)NC(C)C(=O)NC(CCC(=O)NCCCCCNc2ccc([N+](=O)[O-])c3[nH]c4ccccc4c(=O)c23)C(N)=O)C(O)C(CO)OC1(C)OCc1ccccc1 (stereo unspecified)", "GI50": "79.3 µM (inactive)"}
{"compound": "C[C@]12CC(C#N)C(=O)C(O)=C1CC[C@@H]1C2CC[C@@]2(C)C1CC[C@@H]2O (stereo partly specified)", "GI50": "> 100 µM (inactive)"}
{"compound": "c1ccc(C2=NCCc3cc4c(cc32)OCO4)cc1", "GI50": "> 100 µM (inactive)"}
{"compound": "CCCCCC(O)[C@H]1C(=O)C[C@@H](O[Si](C)(C)C(C)(C)C)[C@@H]1/C=C/CCOCc1ccccc1 (stereo partly specified)", "GI50": "5.41 µM (inactive)"}
